system: 885512-296-R-J2-PDC complex spheroid viability; experiment: Anticancer human tumor 885512-296-R-J2-PDC patient-derived breast carcinoma cell line growth inhibition; settings: second compound 0.316 µM; first compound 0.01 µM; active = viability on the fitted dose curve at most 10% of control; inactive = the rest
Outcomes you can answer with include only these: active, inactive

Data request: Test call for this molecule, please: CC(C)CC(NC(=O)C(Cc1ccccc1)NC(=O)c1cnccn1)B(O)O (configuration not stated) + NC1CC1c1ccc(-c2cccc(O)c2)cc1
Data returned: active

Data request: Another molecule to check: CC[C@@]1(O)C(=O)OCc2c1cc1n(c2=O)Cc2cc3c(CN(C)C)c(O)ccc3nc2-1 + NC1CCC(NC2CC2c2ccccc2)CC1
Data returned: active

Data request: Repeat with CC(C)CC(NC(=O)CNC(=O)c1cc(Cl)ccc1Cl)B1OC(=O)CC(CC(=O)O)(C(=O)O)O1 (configuration not stated) + NC1CC1c1ccc(-c2cccc(O)c2)cc1
Data returned: inactive

Data request: Consider next the molecule Nc1ncn(C2CC(O)C(CO)O2)c(=O)n1 (configuration not stated) + NC1CCC(NC2CC2c2ccccc2)CC1 in the same way.
Data returned: inactive

Data request: Continue with Cn1ncnc1C1c2n[nH]c(=O)c3cc(F)cc(c23)NC1c1ccc(F)cc1 (configuration not stated) + NC1CCC(NC2CC2c2ccccc2)CC1
Data returned: inactive

Data request: Next molecule: COc1cc(Nc2ncc3c(n2)-c2ccc(Cl)cc2C(c2c(F)cccc2OC)=NC3)ccc1C(=O)O + NC1CC1c1ccc(-c2cccc(O)c2)cc1
Data returned: inactive

Data request: Entry to check: O=C(C=Cn1cnc(-c2cc(C(F)(F)F)cc(C(F)(F)F)c2)n1)NNc1cnccn1 + NC1CC1c1ccc(-c2cccc(O)c2)cc1
Data returned: active

###

System: 885512-296-R-J2-PDC complex spheroid viability
Assay: Anticancer human tumor 885512-296-R-J2-PDC cell line growth inhibition;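 note: spheroids exposed to agents for 7 days before viability read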
Settings: second compound 3.16 µM; first compound 0.000949 µM; hits give low values
Description: Multicellular complex tumor spheroid response to LSD1 Inhibitor Iadademstat in combination with a variety of drugs and investigational agents in selected tumor cell lines The current study was undertaken to assess response to LSD1 inhibitors in combination with standard-of-care drugs and investigational agents in solid tumor complex spheroid models as well as in the K-562 leukemia. […] Compounds. […] If the clinical Cmax for an agent had not been determined, the highest concentration tested was 10 microM. […]
observation.type: viability, T/C (%)
Give just the number in %; leave the unit off.

Data request: May I ask what viability, T/C has been recorded for Nc1ncn(C2CC(O)C(CO)S2)c(=O)n1 (stereo unspecified) + NC1CCC(NC2CC2c2ccccc2)CC1 ?
Data returned: 83

Data request: Request: Nc1ncn(C2CC(O)C(CO)S2)c(=O)n1 (stereo unspecified) + NC1CC1c1ccc(-c2cccc(O)c2)cc1
Data returned: 61.6

Data request: Same read-out for CCc1c2c(nc3ccc(O)cc13)-c1cc3c(c(=O)n1C2)COC(=O)[C@]3(O)CC + NC1CC1c1ccc(-c2cccc(O)c2)cc1 ?
Data returned: 2.13

Data request: Record: Nc1ccn(C2OC(CO)C(O)C2(F)F)c(=O)n1 (stereo unspecified) + NC1CC1c1ccc(-c2cccc(O)c2)cc1
Data returned: 15.3

Data request: Note, next up: Nc1ccn(C2OC(CO)C(O)C2(F)F)c(=O)n1 (stereo unspecified) + NC1CCC(NC2CC2c2ccccc2)CC1
Data returned: 2.36

Data request: Another compound to look at: CCc1c2c(nc3ccc(O)cc13)-c1cc3c(c(=O)n1C2)COC(=O)[C@]3(O)CC + NC1CCC(NC2CC2c2ccccc2)CC1
Data returned: 1.98

###

tested on: 885512-296-R-J2-PDC complex spheroid viability; assay: Anticancer human tumor 885512-296-R-J2-PDC cell line growth inhibition; conditions: second compound 0.1 µM; first compound 0.003 µM; hits give low values;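 note: spheroids exposed to agents for 7 days before viability read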
Lab note: cut-off is 2%. Strictly less in viability, T/C is class 1. Exactly 2% or more is class 0.

Data request: I'd appreciate it if you could check whether Nc1ccn(C2OC(CO)C(O)C2(F)F)c(=O)n1 (stereo unspecified) + NC1CC1c1ccc(-c2cccc(O)c2)cc1 has viability, T/C smaller than 2%.
Data returned: class 0

Data request: Repeat for the following compound: Nc1ncn(C2CC(O)C(CO)S2)c(=O)n1 (stereo unspecified) + NC1CC1c1ccc(-c2cccc(O)c2)cc1
Data returned: class 0

Data request: Note, next up: Nc1ccn(C2OC(CO)C(O)C2(F)F)c(=O)n1 (stereo unspecified) + NC1CCC(NC2CC2c2ccccc2)CC1
Data returned: class 0

Data request: And CCc1c2c(nc3ccc(O)cc13)-c1cc3c(c(=O)n1C2)COC(=O)[C@]3(O)CC + NC1CC1c1ccc(-c2cccc(O)c2)cc1 ?
Data returned: class 1

Data request: Now give it for Nc1ncn(C2CC(O)C(CO)S2)c(=O)n1 (stereo unspecified) + NC1CCC(NC2CC2c2ccccc2)CC1 too.
Data returned: class 0

Data request: Here is the next compound: CCc1c2c(nc3ccc(O)cc13)-c1cc3c(c(=O)n1C2)COC(=O)[C@]3(O)CC + NC1CCC(NC2CC2c2ccccc2)CC1
Data returned: class 0

###

test system: 885512-296-R-J2-PDC complex spheroid viability; assay: Anticancer human tumor 885512-296-R-J2-PDC cell line growth inhibition; settings: second compound 1 µM; first compound 0.00949 µM; active means viability on the fitted dose curve at most 10% of control; inactive means the rest;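 note: spheroids exposed to agents for 7 days before viability read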
Parameter call: string, one of active, inactive

Data request: Which result was noted for this molecule in the test: Nc1ncn(C2CC(O)C(CO)S2)c(=O)n1 (stereo not given) + NC1CC1c1ccc(-c2cccc(O)c2)cc1
Data returned: inactive

Data request: Also check COc1cc(C2c3cc4c(cc3C(OC3OC5COC(C)OC5C(O)C3O)C3COC(=O)C23)OCO4)cc(OC)c1O (stereo not given) + NC1CC1c1ccc(-c2cccc(O)c2)cc1
Data returned: inactive

Data request: Now give it for NS(=O)(=O)OCC1CC(n2ccc3c(NC4CCc5ccccc54)ncnc32)CC1O (stereo not given) + NC1CC1c1ccc(-c2cccc(O)c2)cc1 too.
Data returned: inactive

Data request: Queued: O=C(C=Cc1cccc(S(=O)(=O)Nc2ccccc2)c1)NO + NC1CC1c1ccc(-c2cccc(O)c2)cc1
Data returned: inactive

Data request: And for Nc1ccn(C2OC(CO)C(O)C2(F)F)c(=O)n1 (stereo not given) + NC1CCC(NC2CC2c2ccccc2)CC1 ?
Data returned: active

###

System: 885512-296-R-J2-PDC complex spheroid viability
Assay: Anticancer human tumor 885512-296-R-J2-PDC cell line growth inhibition;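 note: spheroids exposed to agents for 7 days before viability read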
Settings: second compound 0.1 µM; first compound 0.0949 µM; hits give low values
From the text: Multicellular complex tumor spheroid response to LSD1 Inhibitor Iadademstat in combination with a variety of drugs and investigational agents in selected tumor cell lines The current study was undertaken to assess response to LSD1 inhibitors in combination with standard-of-care drugs and investigational agents in solid tumor complex spheroid models as well as in the K-562 leukemia. […] Compounds. […] If the clinical Cmax for an agent had not been determined, the highest concentration tested was 10 microM. […]
observation.type: viability, T/C

Data request: viability, T/C lookup needed for Nc1ncn(C2CC(O)C(CO)S2)c(=O)n1 (configuration not stated) + NC1CC1c1ccc(-c2cccc(O)c2)cc1 , thanks.
Data returned: 8.39%

Data request: Now this one: CCN(c1cc(-c2ccc(CN3CCOCC3)cc2)cc(C(=O)NCc2c(C)cc(C)[nH]c2=O)c1C)C1CCOCC1 + NC1CC1c1ccc(-c2cccc(O)c2)cc1
Data returned: 67.2%

Data request: Next record, please: Nc1ccn(C2OC(CO)C(O)C2(F)F)c(=O)n1 (configuration not stated) + NC1CCC(NC2CC2c2ccccc2)CC1
Data returned: 5.54%

Data request: Continue with O=C(C=Cc1cccc(S(=O)(=O)Nc2ccccc2)c1)NO + NC1CCC(NC2CC2c2ccccc2)CC1
Data returned: 42.8%

Data request: Do the same for NS(=O)(=O)OCC1CC(n2ccc3c(NC4CCc5ccccc54)ncnc32)CC1O (configuration not stated) + NC1CC1c1ccc(-c2cccc(O)c2)cc1 please
Data returned: 2.38%

Data request: Another molecule to check: Nc1ncn(C2CC(O)C(CO)S2)c(=O)n1 (configuration not stated) + NC1CCC(NC2CC2c2ccccc2)CC1
Data returned: 12.6%

Data request: Please give the result for Nc1ccn(C2OC(CO)C(O)C2(F)F)c(=O)n1 (configuration not stated) + NC1CC1c1ccc(-c2cccc(O)c2)cc1 too.
Data returned: 2.84%

Data request: Do the same for CCc1c2c(nc3ccc(O)cc13)-c1cc3c(c(=O)n1C2)COC(=O)[C@]3(O)CC + NC1CCC(NC2CC2c2ccccc2)CC1 please
Data returned: 6.49%

Data request: Item: CCN(c1cc(-c2ccc(CN3CCOCC3)cc2)cc(C(=O)NCc2c(C)cc(C)[nH]c2=O)c1C)C1CCOCC1 + NC1CCC(NC2CC2c2ccccc2)CC1
Data returned: 104%

Data request: Also COc1cc(C2c3cc4c(cc3C(OC3OC5COC(C)OC5C(O)C3O)C3COC(=O)C23)OCO4)cc(OC)c1O (configuration not stated) + NC1CCC(NC2CC2c2ccccc2)CC1 , if possible.
Data returned: 31.2%

Data request: Quick one: Nc1ccccc1NC(=O)c1ccc(CNC(=O)OCc2cccnc2)cc1 + NC1CC1c1ccc(-c2cccc(O)c2)cc1
Data returned: 30.5%

Data request: Next molecule up: O=C(C=Cc1cccc(S(=O)(=O)Nc2ccccc2)c1)NO + NC1CC1c1ccc(-c2cccc(O)c2)cc1
Data returned: 26.4%
